# run-description: Maximal Tolerated Dose (MTD), bolus SC
# Type: in vivo
# experimental-context: in vivo; study MTD Exp 001, Rat/SD, bolus SC, 90, 150, 300, 625 mg/kg
Where a SMILES comes first, the peptide text is derived from it. [ ]: non-standard residue; d: D form. Dopa = N[C@@H](Cc1ccc(O)c(O)c1)C(=O)O
property-name: MTD (mg/kg)
One number for each entry, in mg/kg.

Name the recorded MTD of the item N[C@@H](Cc1ccc(O)c(O)c1)C(=O)N[C@@H](Cc1ccc(O)cc1)C(=O)O [LD-Tyr] (H-[Dopa]-Tyr-OH) in your answer. 300

* * *

# run-description: PK of formulations with varying concentrations of LD-Tyr and CD (Example 16)
# Type: in vivo, domestic pig
# experimental-context: female, pig, plasma, sc, 2700 mg/day, analyte LD-Tyr; LD-Tyr/CD 30/0.5 % w/v, daily dose 2700/45 mg; 18-hour continuous SC infusion; n = 5
Where a SMILES comes first, the peptide text is derived from it. [ ]: non-standard residue; d: D form. Dopa = N[C@@H](Cc1ccc(O)c(O)c1)C(=O)O
property-name: Cmax
Param answer (str): number followed by unit.

Name the recorded Cmax of the item N[C@@H](Cc1ccc(O)c(O)c1)C(=O)N[C@@H](Cc1ccc(O)cc1)C(=O)O [LD-Tyr] (H-[Dopa]-Tyr-OH) in your answer. 453 ng/mL

* * *

# run-description: PK following bolus and 2-hr continuous SC administration of 30% LD-Tyr (Example 18)
# Assay type: in vivo, domestic pig
# experimental-context: female, pig, plasma, sc, analyte LD-Tyr; 30/1 % w/v; bolus volume 1.7 mL, bolus dose 510/17 mg, daily dose 810/27 mg; bolus and 2-hr continuous SC administration
# Method: A series of PK and local-tox studies was completed in domestic pigs using several concentrations LD-Tyr formulations comprising varying amounts of CD, as detailed in Table 42, and dosing regimens, as detailed in Table 43. […] Each formulation was administered at one infusion site per animal using a Crono-ND infusion pump (Canè SpA Medical Technology, Rivoli, Italy) connected to an infusion set (Accu-chek®, FlexLink, Roche). […]
Where a SMILES comes first, the peptide text is derived from it. [ ]: non-standard residue; d: D form. Dopa = N[C@@H](Cc1ccc(O)c(O)c1)C(=O)O
property-name: AUC(0-t) (ng·h/mL)
Answers are plain numbers, in ng·h/mL.

Name the recorded AUC(0-t) of the item N[C@@H](Cc1ccc(O)c(O)c1)C(=O)N[C@@H](Cc1ccc(O)cc1)C(=O)O [LD-Tyr] (H-[Dopa]-Tyr-OH) in your answer. 2430

* * *

# run-description: PK of high concentration LD-Tyr formulations comprising TRIS, 0.5% CD (Example 15B)
# Type: in vivo, domestic pig
# experimental-context: female, pig, plasma, sc, analyte LD-Tyr; LD-Tyr/CD 44/0.5 % w/v, daily dose 2700/45 mg; 18-hour continuous SC infusion; n = 1
Where a SMILES comes first, the peptide text is derived from it. [ ]: non-standard residue; d: D form. Dopa = N[C@@H](Cc1ccc(O)c(O)c1)C(=O)O
property-name: Tmax (h)
One number for each entry, in h.

Name the recorded Tmax of the item N[C@@H](Cc1ccc(O)c(O)c1)C(=O)N[C@@H](Cc1ccc(O)cc1)C(=O)O [LD-Tyr] (H-[Dopa]-Tyr-OH) in your answer. 2

* * *

# run-description: PK of LD following 18-hr SC administration of LD-Tyr in a formulation comprising ethanol (Example 22)
# Type: in vivo, domestic pig
# experimental-context: pig, plasma, 2700 mg; analyte LD-Tyr; LD-Tyr/CD daily dose 2700/117 mg; 18-hr continuous SC, formulation comprising ethanol; n = 5
Where a SMILES comes first, the peptide text is derived from it. [ ]: non-standard residue; d: D form. Dopa = N[C@@H](Cc1ccc(O)c(O)c1)C(=O)O
property-name: AUC(0-t) (ng·h/mL)
Answers are plain numbers, in ng·h/mL.

Name the recorded AUC(0-t) of the item N[C@@H](Cc1ccc(O)c(O)c1)C(=O)N[C@@H](Cc1ccc(O)cc1)C(=O)O [LD-Tyr] (H-[Dopa]-Tyr-OH) in your answer. 8210

* * *

# run-description: PK following bolus and 2-hr continuous SC administration of 30% LD-Tyr (Example 18)
# Type: in vivo, domestic pig
# experimental-context: female, pig, plasma, sc, analyte LD-Tyr; 30/1 % w/v; bolus volume 0.7 mL, bolus dose 210/7 mg, daily dose 510/17 mg; bolus and 2-hr continuous SC administration
Where a SMILES comes first, the peptide text is derived from it. [ ]: non-standard residue; d: D form. Dopa = N[C@@H](Cc1ccc(O)c(O)c1)C(=O)O
property-name: AUC(0-t) (ng·h/mL)
One number for each entry, in ng·h/mL.

Name the recorded AUC(0-t) of the item N[C@@H](Cc1ccc(O)c(O)c1)C(=O)N[C@@H](Cc1ccc(O)cc1)C(=O)O [LD-Tyr] (H-[Dopa]-Tyr-OH) in your answer. 1180
